Assignment: determine reported IC50 for the given compounds.
# measured.target: Leucine-rich repeat serine/threonine-protein kinase 2 (Homo sapiens, UniProt Q5S007, G2019S)
# Sequence (Q5S007 whole entry G2019S, the tested form may be a part): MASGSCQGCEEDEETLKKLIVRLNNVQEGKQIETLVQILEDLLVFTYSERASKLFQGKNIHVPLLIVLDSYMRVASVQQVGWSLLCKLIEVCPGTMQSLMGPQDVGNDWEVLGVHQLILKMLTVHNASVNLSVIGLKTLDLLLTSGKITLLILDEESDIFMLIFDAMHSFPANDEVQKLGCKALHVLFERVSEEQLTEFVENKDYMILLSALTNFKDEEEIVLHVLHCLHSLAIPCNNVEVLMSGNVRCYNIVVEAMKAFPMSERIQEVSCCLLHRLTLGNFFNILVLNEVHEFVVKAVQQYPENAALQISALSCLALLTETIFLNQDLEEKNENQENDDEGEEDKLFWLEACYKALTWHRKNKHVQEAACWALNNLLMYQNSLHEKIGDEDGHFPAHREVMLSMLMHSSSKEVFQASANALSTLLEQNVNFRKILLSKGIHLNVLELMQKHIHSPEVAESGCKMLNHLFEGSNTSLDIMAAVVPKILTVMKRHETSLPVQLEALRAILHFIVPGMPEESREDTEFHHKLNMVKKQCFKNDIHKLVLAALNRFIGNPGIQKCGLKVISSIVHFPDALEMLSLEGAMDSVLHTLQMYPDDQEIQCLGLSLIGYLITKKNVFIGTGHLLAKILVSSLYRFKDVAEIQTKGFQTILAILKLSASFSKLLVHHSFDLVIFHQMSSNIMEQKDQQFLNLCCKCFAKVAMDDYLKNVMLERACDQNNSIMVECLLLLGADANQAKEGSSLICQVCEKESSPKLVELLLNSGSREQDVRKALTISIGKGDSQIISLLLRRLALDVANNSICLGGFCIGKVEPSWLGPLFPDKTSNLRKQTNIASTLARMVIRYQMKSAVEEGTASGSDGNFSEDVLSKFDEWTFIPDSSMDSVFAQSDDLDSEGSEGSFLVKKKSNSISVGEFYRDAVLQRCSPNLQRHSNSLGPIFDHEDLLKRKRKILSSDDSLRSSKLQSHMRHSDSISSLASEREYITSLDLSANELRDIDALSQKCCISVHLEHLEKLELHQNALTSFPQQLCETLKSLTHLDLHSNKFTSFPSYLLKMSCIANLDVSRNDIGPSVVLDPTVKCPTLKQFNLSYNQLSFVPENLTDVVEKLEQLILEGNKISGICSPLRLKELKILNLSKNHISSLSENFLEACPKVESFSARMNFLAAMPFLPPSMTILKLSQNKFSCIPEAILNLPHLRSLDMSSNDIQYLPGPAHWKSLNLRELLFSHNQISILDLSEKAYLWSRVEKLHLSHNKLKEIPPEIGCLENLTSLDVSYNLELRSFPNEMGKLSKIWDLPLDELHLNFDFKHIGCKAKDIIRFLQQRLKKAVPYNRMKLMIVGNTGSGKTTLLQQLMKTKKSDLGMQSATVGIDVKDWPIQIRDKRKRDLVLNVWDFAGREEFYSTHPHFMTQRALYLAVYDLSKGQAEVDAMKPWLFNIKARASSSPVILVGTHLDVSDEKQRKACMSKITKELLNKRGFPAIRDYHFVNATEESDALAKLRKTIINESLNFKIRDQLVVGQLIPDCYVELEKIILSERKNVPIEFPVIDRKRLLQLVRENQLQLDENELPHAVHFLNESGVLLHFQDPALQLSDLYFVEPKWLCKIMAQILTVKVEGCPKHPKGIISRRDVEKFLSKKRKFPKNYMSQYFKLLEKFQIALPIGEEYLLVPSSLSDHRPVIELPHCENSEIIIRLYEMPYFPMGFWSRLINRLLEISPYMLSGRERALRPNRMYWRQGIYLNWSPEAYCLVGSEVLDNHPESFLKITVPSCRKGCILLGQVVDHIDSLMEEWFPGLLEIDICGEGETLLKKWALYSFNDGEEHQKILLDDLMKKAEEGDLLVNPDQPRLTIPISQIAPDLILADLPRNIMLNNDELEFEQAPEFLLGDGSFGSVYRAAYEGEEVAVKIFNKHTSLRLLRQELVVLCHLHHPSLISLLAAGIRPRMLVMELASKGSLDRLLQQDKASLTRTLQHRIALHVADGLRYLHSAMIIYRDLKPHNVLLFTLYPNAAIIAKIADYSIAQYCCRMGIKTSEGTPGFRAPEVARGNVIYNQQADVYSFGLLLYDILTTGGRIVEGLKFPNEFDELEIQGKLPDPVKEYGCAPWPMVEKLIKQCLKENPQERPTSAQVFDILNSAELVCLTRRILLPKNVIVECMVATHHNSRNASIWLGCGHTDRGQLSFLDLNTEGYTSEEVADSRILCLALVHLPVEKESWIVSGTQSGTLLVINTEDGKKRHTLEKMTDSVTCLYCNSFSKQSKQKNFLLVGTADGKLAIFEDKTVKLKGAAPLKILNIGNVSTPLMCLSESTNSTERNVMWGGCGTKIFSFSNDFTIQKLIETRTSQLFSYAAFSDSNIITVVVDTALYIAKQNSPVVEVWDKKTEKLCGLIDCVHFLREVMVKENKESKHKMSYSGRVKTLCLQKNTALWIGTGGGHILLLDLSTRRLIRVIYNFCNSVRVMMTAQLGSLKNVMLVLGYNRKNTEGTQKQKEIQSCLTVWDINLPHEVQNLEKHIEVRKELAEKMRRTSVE
# measurement.notes: Inhibition of human LRRK2 G2019S mutant expressed in human SH-SY5Y cells assessed as inhibition of tetracycline induced LRRK2 phosphorylation at Ser935 residue incubated for 90 mins by MSD assay
# Format: cell-based
# value in nM; strip the unit string

Summary for this compound, CC(C)(O)[C@@H]1CCN(c2cnc(C(F)(F)F)c(NC(=O)c3cccc(-c4cnn(C5CCC5)c4)n3)c2)C1 : IC50 is 1.3

Summary for this compound, Cn1cc(-c2cccc(C(=O)Nc3cc(N4CC(O)C4)ncc3C(F)(F)F)n2)cn1 : IC50 is 7.5

Input C[C@@H]1CN(c2cc(NC(=O)c3cccc(-c4cnn(C)c4)n3)c(C(F)(F)F)cn2)C[C@H](C)O1 . Output IC50: 1.5

---

# measured.target: Leucine-rich repeat serine/threonine-protein kinase 2 (Homo sapiens, UniProt Q5S007, G2019S)
# measurement.notes: Inhibition of recombinant human GST20 tagged truncated LRRK2 G2019S mutant assessed as substrate phosphorylation preincubated for 15 mins followed by substrate addition and measured after 90 mins using fluorescein-labeled LRRK2tide as substrate in presence of ATP by TR-FRET based Lanthascreen kinase activity assay
Field: IC50. Provide a value for each of the compounds that follow.
Quick reminder: number only, in nM, skip the unit.

Query Cc1nc(NC(=O)c2cccc(-c3cnn(C)c3)n2)cc(N2CC[C@@H](C(C)(C)O)C2)n1 yields IC50 of 4

Sure, the documented IC50 for C[C@@H]1[C@@H](O)CN1c1cc(NC(=O)c2cccc(-c3cnn(C)c3)n2)c(C(F)(F)F)cn1 is 2

For this compound ( Cn1cc(-c2cccc(C(=O)Nc3cnn(C4CCC4)c3)n2)cn1 ), measured IC50 is 53

The measured IC50 associated with Cn1cc(-c2cccc(C(=O)Nc3cc(N4CC5(C(C)(C)O)CC4C5)ncc3C(F)(F)F)n2)cn1 reads 9
